# Study target: recombinant homotrimeric HA, A/Hong Kong/1073/99 H9N2 (Influenza A virus A/Hong Kong/1073/99 (H9N2))
# Assay: trimeric HA microarray, transfection set 2
# Particulars: remark: other sources report otherwise
In plain terms, low Trimeric HA Binding RLU, meaning strictly below 10000 RLU, gives T, and everything else gives F.

Binder: TCN-527 (5086_C06) (antibody, V domains shown) VH: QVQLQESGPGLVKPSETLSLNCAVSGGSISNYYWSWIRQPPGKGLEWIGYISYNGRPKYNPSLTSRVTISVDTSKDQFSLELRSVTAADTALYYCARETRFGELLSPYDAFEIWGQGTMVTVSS VL: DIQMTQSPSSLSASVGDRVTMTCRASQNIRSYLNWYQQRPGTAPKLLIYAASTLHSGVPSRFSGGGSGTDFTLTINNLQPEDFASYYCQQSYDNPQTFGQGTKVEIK
Classification: T

Item TCN-563 (5237_B21) (antibody, V domains shown) VH: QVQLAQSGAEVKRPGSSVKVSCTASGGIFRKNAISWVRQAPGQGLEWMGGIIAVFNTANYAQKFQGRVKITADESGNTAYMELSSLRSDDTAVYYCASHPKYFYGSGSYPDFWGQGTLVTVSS VL: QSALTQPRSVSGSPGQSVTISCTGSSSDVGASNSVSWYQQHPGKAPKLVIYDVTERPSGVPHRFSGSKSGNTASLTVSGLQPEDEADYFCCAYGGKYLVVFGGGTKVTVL : Trimeric HA Binding RLU beneath 10000 RLU, strictly? F

How about this binder: TCN-523 (5248_A17) (antibody, V domains shown) VH: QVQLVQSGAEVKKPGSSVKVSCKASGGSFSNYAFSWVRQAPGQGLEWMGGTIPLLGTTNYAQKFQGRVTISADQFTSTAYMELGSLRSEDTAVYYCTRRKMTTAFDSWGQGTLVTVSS VL: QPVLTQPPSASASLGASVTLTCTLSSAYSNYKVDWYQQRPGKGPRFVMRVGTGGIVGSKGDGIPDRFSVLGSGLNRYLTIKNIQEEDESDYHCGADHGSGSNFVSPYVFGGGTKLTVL F

How about this binder: TCN-528 (5087_P17) (antibody, V domains shown) VH: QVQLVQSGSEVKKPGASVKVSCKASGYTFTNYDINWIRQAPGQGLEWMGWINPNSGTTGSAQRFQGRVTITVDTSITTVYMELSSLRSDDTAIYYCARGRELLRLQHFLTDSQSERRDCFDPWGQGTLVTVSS VL: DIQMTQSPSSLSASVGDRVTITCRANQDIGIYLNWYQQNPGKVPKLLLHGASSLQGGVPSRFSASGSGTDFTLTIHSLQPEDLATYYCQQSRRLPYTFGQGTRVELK T

How about this binder: TCN-526 (5084_C17) (antibody, V domains shown) VH: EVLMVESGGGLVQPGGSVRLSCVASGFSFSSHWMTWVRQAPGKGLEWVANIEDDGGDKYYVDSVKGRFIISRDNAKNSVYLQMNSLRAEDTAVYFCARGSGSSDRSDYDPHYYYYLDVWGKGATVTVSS VL: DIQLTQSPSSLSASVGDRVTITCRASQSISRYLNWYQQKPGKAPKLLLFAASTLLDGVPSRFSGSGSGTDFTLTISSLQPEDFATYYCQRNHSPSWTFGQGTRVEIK T

How about this binder: TCN-522 (3212_I12) (antibody, V domains shown) VH: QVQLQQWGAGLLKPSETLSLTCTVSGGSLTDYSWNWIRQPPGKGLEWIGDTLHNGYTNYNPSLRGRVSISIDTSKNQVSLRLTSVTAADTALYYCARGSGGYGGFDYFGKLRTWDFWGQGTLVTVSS VL: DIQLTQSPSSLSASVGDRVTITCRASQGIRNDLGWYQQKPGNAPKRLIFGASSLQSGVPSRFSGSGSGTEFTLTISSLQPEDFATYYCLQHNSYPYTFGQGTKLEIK F
